molecules and their reported IC50
target: Pin1 (Homo sapiens, UniProt Q13526); experiment: Pin1 fluorescence polarization competition assay, primary qHTS (HiFluor-488 / Alexa488 probe); conditions: Average HTS Potency, average over Alexa488 primary, Alexa488 reconfirmed and Tamra secondary assays;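 also: Pin1 protein with fluorescent peptide probe, compound displacement read by fluorescence polarization, percent inhibition derived from corrected polarization values, concentration-response curves in 1536-well format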
Sequence (Q13526 whole entry): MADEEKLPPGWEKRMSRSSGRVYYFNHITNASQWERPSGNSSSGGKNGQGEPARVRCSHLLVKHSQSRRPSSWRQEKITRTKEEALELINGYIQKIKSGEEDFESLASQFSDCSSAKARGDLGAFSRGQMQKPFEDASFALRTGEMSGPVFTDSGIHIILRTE
Your answer should be a plain number; it is taken to be in µM.

// below: answered molecules
molecule="Cc1ccc(C(=O)c2no[n+]([O-])c2C(=O)c2ccc(C)cc2)cc1 [Compound 29]" measure_name=IC50 result=0.9
molecule="COc1cc(/C=C2\\SC(=O)N(c3ccc(Cl)cc3)C2=O)cc([N+](=O)[O-])c1O [Compound 38]" measure_name=IC50 result=13
molecule="Cc1ccc(C)n1-c1cccc(C(=O)O)c1 [Compound 17]" measure_name=IC50 result=5

Query string: What IC50 value was documented for this molecule, O=C(c1cccs1)c1no[n+]([O-])c1C(=O)c1cccs1 [Compound 28] ?
Result string: 0.89

Query string: Also need O=C(O)C1Nc2ccc(Br)cc2C2C=CCC12 (centres unmarked) [Compound 6] , thanks.
Result string: 14
